- Tested on: 991263-137-R1-J2-PDC complex spheroid viability
- Protocol: Anticancer human tumor 991263-137-R1-J2-PDC patient-derived colon adenocarcinoma cell line growth inhibition [POLQ]
- Condition details: second compound 0.0316 µM; first compound 0.001 µM; stronger effect = lower value
Each entry below carries its reported viability, T/C.
Answer with a number only, understood to be in %.

# annotated cases, reported viability, T/C shown
Cn1ncnc1[C@H]1c2n[nH]c(=O)c3cc(F)cc(c23)N[C@@H]1c1ccc(F)cc1 + Nc1ccc(C#CCN(C(=O)Cc2ncc(C(F)(F)F)cc2C(F)(F)F)c2ccc(F)cc2)nn1: 97.1
Cn1ncnc1[C@H]1c2n[nH]c(=O)c3cc(F)cc(c23)N[C@@H]1c1ccc(F)cc1 + Cc1cccc(N(C)C(=O)C2C(O)CCN2c2nc(C)cc(C(F)(F)F)c2C#N)c1: 112

// below: viability, T/C requested for another compound
Query string: Which viability, T/C is reported for this compound? CC[C@@]1(O)C(=O)OCc2c1cc1n(c2=O)Cc2cc3c(CN(C)C)c(O)ccc3nc2-1 + COC1C(OC(N)=O)C(O)C(Oc2ccc3c(O)c(NC(=O)c4ccc(O)c(CC=C(C)C)c4)c(=O)oc3c2C)OC1(C)C
Result string: 103

###

The entries below are paired with their reported pIC50.
- System: 991263-137-R1-J2-PDC complex spheroid viability
- Protocol: Anticancer human tumor 991263-137-R1-J2-PDC cell line growth inhibition [POLQ];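 further: spheroids exposed to compounds for 7 days before readout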
- Condition details: curve of first compound; second compound 0.1 µM
- Method: Multicellular complex tumor spheroid response to Polymerase (POL) inhibitors (novobiocin, ART-558, RP6685) in combination with a variety of drugs and investigational agents in selected tumor cell lines The POL inhibitors (novobiocin, ART-558, and RP6685) were evaluated both individually and in combination with standard of care and investigational anticancer small molecules within a complex spheroid model of solid tumors. . […]
pIC50: −log10 of the molar value.

Take a look at these entries with their results.
CC(C)n1c(=O)n(C)c2cnc3cc(F)c(-c4ccc(OCCCN5CCCCC5)nc4)cc3c21 + COC1C(OC(N)=O)C(O)C(Oc2ccc3c(O)c(NC(=O)c4ccc(O)c(CC=C(C)C)c4)c(=O)oc3c2C)OC1(C)C: < 5.00
O=c1[nH]cc(F)c(=O)[nH]1 + COC1C(OC(N)=O)C(O)C(Oc2ccc3c(O)c(NC(=O)c4ccc(O)c(CC=C(C)C)c4)c(=O)oc3c2C)OC1(C)C: < 5.00

Query string: Suppose we examine the compound COc1cc2cc(C(=O)CCC(=O)O)sc2cc1OC + Nc1ccc(C#CCN(C(=O)Cc2ncc(C(F)(F)F)cc2C(F)(F)F)c2ccc(F)cc2)nn1 ; what pIC50 value has been reported?
Result string: < 5.00

Query string: Please answer likewise for Cn1ncnc1[C@H]1c2n[nH]c(=O)c3cc(F)cc(c23)N[C@@H]1c1ccc(F)cc1 + COC1C(OC(N)=O)C(O)C(Oc2ccc3c(O)c(NC(=O)c4ccc(O)c(CC=C(C)C)c4)c(=O)oc3c2C)OC1(C)C
Result string: < 7.00

Query string: Would you kindly repeat that for C=CC(=O)N1CCN(c2nc(=O)n(-c3c(C)ccnc3C(C)C)c3nc(-c4c(O)cccc4F)c(F)cc23)C(C)C1 (stereo not given) + Nc1ccc(C#CCN(C(=O)Cc2ncc(C(F)(F)F)cc2C(F)(F)F)c2ccc(F)cc2)nn1 ?
Result string: < 5.00
